- test_protocol: Biodistribution of ^111In-labeled peptides in B16-F1 melanoma-bearing mice
- Format: in vivo, mouse (B6D2F1)
- run_conditions: female, B6D2F1, mouse, pancreas, iv, total radioactivity; ^111In-labeled peptide, 185 kBq i.v., 24 h; mean ± SEM of three experiments, n = 5 animals each; read-out: Pancreas uptake
Non-standard residues stand in square brackets, D forms with d. Residues, ends and D or L forms follow the SMILES beside them. *: point of attachment. DOTA = O=C(O)CN1CCN(CC(=O)O)CCN(CC(=O)*)CCN(CC(=O)O)CC1; pY = N[C@@H](Cc1ccc(OP(=O)(O)O)cc1)C(=O)O; Nle = CCCC[C@H](N)C(=O)O
Readings of tissue uptake at 24 h for the listed compounds
Numbers only here, please. The scale is %ID/g.

Below are worked cases with known answers.
INSERT INTO assay_data (compound, value_measured) VALUES
  ('CCCC[C@H](NC(=O)[C@H](Cc1ccc(OP(=O)(O)O)cc1)NC(=O)CNC(=O)CN1CCN(CC(=O)O)CCN(CC(=O)O)CCN(CC(=O)O)CC1)C(=O)N[C@@H](CC(=O)O)C(=O)N[C@@H](Cc1c[nH]cn1)C(=O)N[C@H](Cc1ccccc1)C(=O)N[C@@H](CCCNC(=N)N)C(=O)N[C@@H](Cc1c[nH]c2ccccc12)C(N)=O [DOTA-Phospho-MSH2-9] ({DOTA}-G[pY][Nle]DH[dF]RW-NH2)', 0.03),
  ('CCCC[C@H](NC(C)=O)C(=O)N[C@@H](CC(=O)O)C(=O)N[C@@H](Cc1c[nH]cn1)C(=O)N[C@H](Cc1ccccc1)C(=O)N[C@@H](CCCNC(=N)N)C(=O)N[C@@H](Cc1c[nH]c2ccccc12)C(=O)NCC(=O)N[C@@H](CCCCNC(=O)CN1CCN(CC(=O)O)CCN(CC(=O)O)CCN(CC(=O)O)CC1)C(=O)N[C@H](CC(=O)O)C(=O)N[C@H](CC(=O)O)C(=O)O [DOTA-NAP-D-Asp-D-Asp] (Ac-[Nle]DH[dF]RWGK(DOTA)[dD][dD]-OH)', 0.02);

# input Tell me the measured tissue uptake at 24 h of CCCC[C@H](NC(C)=O)C(=O)N[C@@H](CC(=O)O)C(=O)N[C@@H](Cc1c[nH]cn1)C(=O)N[C@H](Cc1ccccc1)C(=O)N[C@@H](CCCNC(=N)N)C(=O)N[C@@H](Cc1c[nH]c2ccccc12)C(=O)NCC(=O)N[C@@H](CCCCNC(=O)CN1CCN(CC(=O)O)CCN(CC(=O)O)CCN(CC(=O)O)CC1)C(N)=O [DOTA-NAP-amide, reference compound] , please.
# output 0.03

All figures here come from paper PMC5405074.
